Each entry below carries its recorded pKd.
# target-of-assay: T1, human CD20 antigen (human, UniProt P11836 1-297)
# T1 construct: whole, on cells; also called CD20 on Raji cells; CD20/CHO cells
# T1 sequence (looked up): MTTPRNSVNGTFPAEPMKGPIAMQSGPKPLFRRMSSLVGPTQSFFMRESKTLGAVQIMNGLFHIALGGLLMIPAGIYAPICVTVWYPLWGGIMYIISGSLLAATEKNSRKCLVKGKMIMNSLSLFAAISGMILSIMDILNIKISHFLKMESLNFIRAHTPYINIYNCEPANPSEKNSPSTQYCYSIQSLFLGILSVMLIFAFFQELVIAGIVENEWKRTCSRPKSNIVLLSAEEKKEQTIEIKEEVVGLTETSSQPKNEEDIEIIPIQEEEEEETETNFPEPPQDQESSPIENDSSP
# test: Scatchard analysis on Raji cells (Example 3), average over the clones of the construct
Hey, just a heads up that pKd is the negative log base 10 of the concentration in molar.

humanized 1K1791 antibody fa (FraL x AbbH) (antibody, V domains shown, Kappa, gamma 1 construct; also called hz1791 fa; Fa007) VH: QIQLVQSGSELKKPGASVKVSCKASGYTFTNFGVNWVRQAPGKGLEWMGWINTYTGEPSYAQGFTGRFVFSLDASVSTAYLQISSLKAEDTATYFCTRRTNYYGTSYYYAMDYWGQGTTVTVSS VL: STVMTQSPSFLSASVGDRVTITCKASQSVSNDVAWYQQKPGQSPKVLIYFASNRYTGVPDRFSGSGYGTDFTLTISSLQAEDVAVYFCQQDYSSPLTFGAGTKLEIK :: 8.00
humanized 1K1791 antibody aa (AbbL x AbbH) (antibody, V domains shown, Whole humanized antibody from CHO cells; construct name ends kg1 (kappa, gamma 1); The two clones are producer clones of one construct; also called hz1791 aa; Aa008) VH: QIQLVQSGSELKKPGASVKVSCKASGYTFTNFGVNWVRQAPGKGLEWMGWINTYTGEPSYAQGFTGRFVFSLDASVSTAYLQISSLKAEDTATYFCTRRTNYYGTSYYYAMDYWGQGTTVTVSS VL: STVMTQSPDSLAVSLGERATINCKSSQSVSNDVAWYQQKPGQSPKVLIYFASNRYSGVPDRFSGSGYGTDFTLTISSLQAEDVAVYFCQQDYSSPLTFGAGTKLEIK :: 7.97

IN: Endpoint output: pKd of humanized 1K1791 antibody sf (SdrL x FraH) (antibody, V domains shown, Kappa, gamma 1 construct; also called hz1791 sf; Sf043) VH: QIQLVQSGSELKKPGASVKVSCKASGYTFTNFGVNWVKQAPGKGLKWMGWINTYTGEPSYADDFKGRFAFSLDASASTAYLQISSLKAEDMATYFCTRRTNYYGTSYYYAMDYWGQGTTVTVSS VL: STVMTQSPDSLAVSLGERATINCKSSQSNSNDVAWYQQKPGQSPKVLIYFASNRYSGVPDRFSGSGYGTDFTLTISSLQAEDVAVYFCQQDYSSPLTFGAGTKLEIK . Value?
OUT: 7.90
